Just for reference, paper PMC3680490 is where these values come from.

- system.name: CHK1 (Homo sapiens)
- Sequence (O14757 1-476): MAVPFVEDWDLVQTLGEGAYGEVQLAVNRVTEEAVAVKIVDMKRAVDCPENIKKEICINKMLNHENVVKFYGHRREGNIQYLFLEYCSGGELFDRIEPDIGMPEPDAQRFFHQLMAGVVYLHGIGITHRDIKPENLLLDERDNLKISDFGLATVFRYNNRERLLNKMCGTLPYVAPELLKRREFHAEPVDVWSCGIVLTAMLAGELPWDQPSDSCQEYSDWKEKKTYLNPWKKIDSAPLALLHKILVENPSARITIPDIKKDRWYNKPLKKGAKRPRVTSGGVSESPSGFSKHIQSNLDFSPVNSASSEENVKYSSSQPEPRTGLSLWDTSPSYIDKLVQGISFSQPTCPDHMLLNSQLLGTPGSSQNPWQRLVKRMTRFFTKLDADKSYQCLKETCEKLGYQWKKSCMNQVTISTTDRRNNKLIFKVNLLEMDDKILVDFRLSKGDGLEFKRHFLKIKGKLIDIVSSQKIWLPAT
- measurement.description: CHK1 mobility shift assay
- condition: inactive
pIC50: −log10 of the molar value.
pIC50 by entry:

Q: Hello, I am looking for reported pIC50 with CHK1 (Homo sapiens) for COc1ccc(CNC(=O)c2ccc3nccnc3c2)cc1 . Could you help?
Result: < 3.70

With those in mind, consider the next molecule.
Q: Hello, I am looking for reported pIC50 with CHK1 (Homo sapiens) for O=C(NCc1ccco1)c1ccc2nccnc2c1 . Could you help?
Result: < 3.70

----------
- system.name: full-length CHK2 (Homo sapiens)
- Construct: full-length human CHK2 (residues 1 to 543); 6xHis (N); made in house; host or cells: Sf9 insect cells (baculovirus)
- Sequence (O96017 whole entry, the tested form may be a part): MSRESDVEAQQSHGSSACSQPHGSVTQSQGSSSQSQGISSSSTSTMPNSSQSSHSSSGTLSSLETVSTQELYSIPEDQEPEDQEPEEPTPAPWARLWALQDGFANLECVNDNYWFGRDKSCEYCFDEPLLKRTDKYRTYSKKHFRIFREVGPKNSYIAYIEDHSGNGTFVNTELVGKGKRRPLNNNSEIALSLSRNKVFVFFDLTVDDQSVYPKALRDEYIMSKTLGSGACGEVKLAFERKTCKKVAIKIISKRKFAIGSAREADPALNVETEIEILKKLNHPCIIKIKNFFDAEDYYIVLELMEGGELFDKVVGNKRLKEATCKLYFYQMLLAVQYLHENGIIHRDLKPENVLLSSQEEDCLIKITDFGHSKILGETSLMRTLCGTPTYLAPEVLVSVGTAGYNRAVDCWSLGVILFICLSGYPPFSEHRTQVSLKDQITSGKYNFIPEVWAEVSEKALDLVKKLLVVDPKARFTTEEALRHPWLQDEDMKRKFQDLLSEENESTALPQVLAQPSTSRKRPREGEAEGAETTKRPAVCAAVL
- measurement.description: Microfluidic mobility shift assay for IC50 determination
- Assay type: biochemical
- condition: calculated using mean mobility shift IC50; Table 2
Ligand Efficiency by entry:
Output spec: scalar in kcal mol^−1 HA^−1, unitless text.

Q: Please look up its Ligand Efficiency: c1cncc(-c2n[nH]c3ccnc(-c4cccs4)c23)c1
Result: 0.32

Q: Please look up its Ligand Efficiency: COc1ccc(CNC(=O)c2ccc3nccnc3c2)cc1
Result: 0.34

Q: Please look up its Ligand Efficiency: CCOC(=O)N1CCN(C(=O)Nc2ccc3nccnc3c2)CC1
Result: 0.28

With those in mind, consider the next compound.
Q: Please look up its Ligand Efficiency: c1coc(-c2ccnc3[nH]nc(C4CC4)c23)c1
Result: 0.42

----------
- system.name: kinase domain of CHK2 (CHK2-KD, residues 210-531) (Homo sapiens)
- Construct: The kinase domain of CHK2 (residues 210-531) was produced as a GST-fusion protein; GST (cleaved yes); made in house
- measurement.description: Thermal shift assay (SYPRO Orange)
- Format: binding
- condition: highest value of two independent measurements; 2 mM fragment
assay.endpoint: T m, ligand (standard deviations from the plate mean) (standard deviations)
Output spec: scalar in standard deviations, unitless text.

These recorded examples may help you get a feel for the data.
Q: Please look up its T m, ligand (standard deviations from the plate mean): CC(=O)N1CCC(C(=O)Nc2ccc(C)cn2)CC1 [Compound 19]
Result: 5.7

Q: Please look up its T m, ligand (standard deviations from the plate mean): CC(C)(C)NC(=O)Nc1ccc2nccnc2c1 [Compound 14]
Result: 4.3

Q: Please look up its T m, ligand (standard deviations from the plate mean): Cc1cc(-c2ccccc2)n[nH]1 [Compound 16]
Result: 3.7

Q: Please look up its T m, ligand (standard deviations from the plate mean): Cc1ccc2ncnc(N)c2c1 [Compound 15]
Result: 4.6

Q: Please look up its T m, ligand (standard deviations from the plate mean): c1ccc2c(c1)[nH]c1ncnn12 [Compound 11]
Result: 5.8

Q: Please look up its T m, ligand (standard deviations from the plate mean): C/C(=N/O)c1ccc(O)cc1O [Compound 12]
Result: 2.9

Q: Please look up its T m, ligand (standard deviations from the plate mean): Nc1cc(-c2cccnc2)n[nH]1 [Compound 17]
Result: 4.2

Q: Please look up its T m, ligand (standard deviations from the plate mean): Cc1n[nH]c(N)c1-c1cccs1 [Compound 18]
Result: 4.6

Continuing:
Q: Please look up its T m, ligand (standard deviations from the plate mean): O=C(NCc1ccco1)c1ccc2nccnc2c1 [Compound 13]
Result: 5.7

----------
- system.name: kinase domain of CHK2 (CHK2-KD, residues 210-531) (Homo sapiens, UniProt O96017)
- Construct: The kinase domain of CHK2 (residues 210-531) was produced as a GST-fusion protein; GST (cleaved yes); made in house
- Sequence (O96017 210-531): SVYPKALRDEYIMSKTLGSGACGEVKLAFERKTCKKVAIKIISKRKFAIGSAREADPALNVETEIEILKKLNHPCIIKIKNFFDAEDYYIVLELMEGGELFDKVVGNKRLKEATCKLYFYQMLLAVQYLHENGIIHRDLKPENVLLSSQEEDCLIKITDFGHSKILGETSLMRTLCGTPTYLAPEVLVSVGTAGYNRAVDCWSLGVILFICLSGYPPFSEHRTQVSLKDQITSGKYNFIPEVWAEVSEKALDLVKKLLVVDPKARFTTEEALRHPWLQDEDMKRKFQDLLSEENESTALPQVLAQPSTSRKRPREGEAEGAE
- measurement.description: Thermal shift assay (SYPRO Orange)
- Type: binding
- condition: mean of two independent measurements; 2 mM ligand
assay.endpoint: ΔT m, ligand (°C)
Output spec: scalar in °C, unitless text.

These recorded examples may help you get a feel for the data.
Q: Please look up its ΔT m, ligand: Nc1cc(-c2cccnc2)n[nH]1
Result: 3.7

Q: Please look up its ΔT m, ligand: O=C(NCc1ccco1)c1ccc2nccnc2c1
Result: 5.6

Q: Please look up its ΔT m, ligand: CC(=O)N1CCC(C(=O)Nc2ccc(C)cn2)CC1
Result: 4.0

Q: Please look up its ΔT m, ligand: Cc1ccc2ncnc(N)c2c1
Result: 5.0

Q: Please look up its ΔT m, ligand: Cc1n[nH]c(N)c1-c1cccs1
Result: 3.9

Continuing:
Q: Please look up its ΔT m, ligand: c1ccc2c(c1)[nH]c1ncnn12
Result: 7.0

Q: Please look up its ΔT m, ligand: Cc1cc(-c2ccccc2)n[nH]1
Result: 2.6

Q: Please look up its ΔT m, ligand: CC(C)(C)NC(=O)Nc1ccc2nccnc2c1
Result: 4.5

----------
- system.name: full-length CHK2 (Homo sapiens)
- Construct: full-length human CHK2 (residues 1 to 543); 6xHis (N); made in house; host or cells: Sf9 insect cells (baculovirus)
- measurement.description: Microfluidic mobility shift assay for IC50 determination
- Type: biochemical
- condition: calculated using mean mobility shift IC50; Table 1
Ligand Efficiency by entry:

Q: Please look up its Ligand Efficiency: c1ccc2c(c1)[nH]c1ncnn12 [Compound 11]
Result: 0.64 kcal mol^−1 HA^−1

Q: Please look up its Ligand Efficiency: CC(C)(C)NC(=O)Nc1ccc2nccnc2c1 [Compound 14]
Result: 0.34 kcal mol^−1 HA^−1

Q: Please look up its Ligand Efficiency: Cc1n[nH]c(N)c1-c1cccs1 [Compound 18]
Result: 0.47 kcal mol^−1 HA^−1

Q: Please look up its Ligand Efficiency: Nc1cc(-c2cccnc2)n[nH]1 [Compound 17]
Result: 0.47 kcal mol^−1 HA^−1

Q: Please look up its Ligand Efficiency: CC(=O)N1CCC(C(=O)Nc2ccc(C)cn2)CC1 [Compound 19]
Result: 0.26 kcal mol^−1 HA^−1

Q: Please look up its Ligand Efficiency: C/C(=N/O)c1ccc(O)cc1O [Compound 12]
Result: 0.47 kcal mol^−1 HA^−1

Q: Please look up its Ligand Efficiency: O=C(NCc1ccco1)c1ccc2nccnc2c1 [Compound 13]
Result: 0.36 kcal mol^−1 HA^−1

With those in mind, consider the next compound.
Q: Please look up its Ligand Efficiency: Cc1ccc2ncnc(N)c2c1 [Compound 15]
Result: 0.55 kcal mol^−1 HA^−1

----------
- system.name: full-length CHK2 (Homo sapiens)
- Construct: full-length human CHK2 (residues 1 to 543); 6xHis (N); made in house; host or cells: Sf9 insect cells (baculovirus)
- measurement.description: Microfluidic mobility shift assay for IC50 determination
- Format: biochemical
- condition: fragment hits; mean ± SD of triplicate; 100 µM ATP
assay.endpoint: IC50 (µM)
Output spec: scalar in µM, unitless text.

These recorded examples may help you get a feel for the data.
Q: Please look up its IC50: C/C(=N/O)c1ccc(O)cc1O [Compound 12]
Result: 85.6

Q: Please look up its IC50: Nc1cc(-c2cccnc2)n[nH]1 [Compound 17]
Result: 76.2

Q: Please look up its IC50: Cc1ccc2ncnc(N)c2c1 [Compound 15]
Result: 15.9

Continuing:
Q: Please look up its IC50: Cc1n[nH]c(N)c1-c1cccs1 [Compound 18]
Result: 76.8

Q: Please look up its IC50: CC(=O)N1CCC(C(=O)Nc2ccc(C)cn2)CC1 [Compound 19]
Result: 228

Q: Please look up its IC50: c1ccc2c(c1)[nH]c1ncnn12 [Compound 11]
Result: 2.7

Q: Please look up its IC50: O=C(NCc1ccco1)c1ccc2nccnc2c1 [Compound 13]
Result: 11.7

Q: Please look up its IC50: CC(C)(C)NC(=O)Nc1ccc2nccnc2c1 [Compound 14]
Result: 36.9

----------
- system.name: full-length CHK2 (Homo sapiens)
- Construct: full-length human CHK2 (residues 1 to 543); 6xHis (N); made in house; host or cells: Sf9 insect cells (baculovirus)
- measurement.description: High-concentration AlphaScreen kinase assay (phosphorylation of CDC25C peptide)
- Type: biochemical
- condition: primary screening data, compound concentration 300 µM, mean ± SD of triplicate; read-out: AlphaScreen™ (percentage inhibition)
Tick Condition met if inhibition at 300 µM is 70% or greater. Tick Condition not met if inhibition at 300 µM is less than 70%.

Please review the entries below; each comes with its answer.
Q: Does CC(C)(C)NC(=O)Nc1ccc2nccnc2c1 [Compound 14] have a reported inhibition at 300 µM of at least 70%?
Result: Condition not met

Q: Does CC(=O)N1CCC(C(=O)Nc2ccc(C)cn2)CC1 [Compound 19] have a reported inhibition at 300 µM of at least 70%?
Result: Condition not met

Q: Does C/C(=N/O)c1ccc(O)cc1O [Compound 12] have a reported inhibition at 300 µM of at least 70%?
Result: Condition not met

Q: Does Cc1n[nH]c(N)c1-c1cccs1 [Compound 18] have a reported inhibition at 300 µM of at least 70%?
Result: Condition not met

Q: Does Cc1ccc2ncnc(N)c2c1 [Compound 15] have a reported inhibition at 300 µM of at least 70%?
Result: Condition met

Continuing:
Q: Does c1ccc2c(c1)[nH]c1ncnn12 [Compound 11] have a reported inhibition at 300 µM of at least 70%?
Result: Condition met

Q: Does O=C(NCc1ccco1)c1ccc2nccnc2c1 [Compound 13] have a reported inhibition at 300 µM of at least 70%?
Result: Condition met

Q: Does Cc1cc(-c2ccccc2)n[nH]1 [Compound 16] have a reported inhibition at 300 µM of at least 70%?
Result: Condition not met
